Where do the numbers come from? From patent US20240124585A1.

# system: T1, human CD3 epsilon (Acro Cat #CDE-H5223) (human, UniProt P07766 23-126)
# T1 construct: Bought recombinant protein; also called rhCD3E
# T1 sequence (P07766 23-126 limits assumed): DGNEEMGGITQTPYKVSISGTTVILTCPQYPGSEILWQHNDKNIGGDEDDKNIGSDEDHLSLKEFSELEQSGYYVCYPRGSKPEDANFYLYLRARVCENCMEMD
# testProtocol: SPR (Biacore), antibody captured, human CD3 epsilon analyte
Output 1 for kon not less than 50000 M⁻¹ s⁻¹; output 0 otherwise.

SRP 2037-B10 F29D/LC6 (antibody, human IgG1, kappa, V domains shown, human IgG1, kappa) VH: EVQLVESGGGLVKPGGSLRLSCAASGFTDNKYAMNWVRQAPGKGLEWVARIRTKYNNYATYYADSVKDRFTISRDDSKNTAYLQMNSLKTEDTAVYYCVRHGNFGNSYISYWAYWGQGTPVTVSS VL: DIQMTQSPSSLSASVGDRVTITCGSSTGAVTSGYYPNWLQQKPGQAPRGLIGGTKFLAPGVPSRFSGSLSGGKATLTISSLQPEDFATYYCALWYSNRWVFGGGTKVEIKR | 0
SRP 2037-B10 S107D/LC6 (antibody, human IgG1, kappa, V domains shown, human IgG1, kappa; also called 2037-B10 IgG S107D Lc6) VH: EVQLVESGGGLVKPGGSLRLSCAASGFTFNKYAMNWVRQAPGKGLEWVARIRTKYNNYATYYADSVKDRFTISRDDSKNTAYLQMNSLKTEDTAVYYCVRHGNFGNDYISYWAYWGQGTPVTVSS VL: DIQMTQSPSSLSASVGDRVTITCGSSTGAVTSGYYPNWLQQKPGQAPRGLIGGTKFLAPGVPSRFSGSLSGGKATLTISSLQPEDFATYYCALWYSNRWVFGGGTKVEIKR | 1
SRP 2037-B10 Y61D/R97D (antibody, human IgG1, lambda, V domains shown, human IgG1, lambda) VH: EVQLVESGGGLVKPGGSLRLSCAASGFTFNKYAMNWVRQAPGKGLEWVARIRTKYNNYATDYADSVKDRFTISRDDSKNTAYLQMNSLKTEDTAVYYCVRHGNFGNSYISYWAYWGQGTPVTVSS VL: QTVVTQEPSLTVSPGGTVTLTCGSSTGAVTSGYYPNWLQQKPGQAPRGLIGGTKFLAPGTPARFSGSLLGGKAALTLSGVQPEDEAEYYCALWYSNDWVFGGGTQLTVTG | 1
2037-B10_Hc-S107D (antibody, human IgG1, lambda, V domains shown, human IgG1, lambda; also called SRP 2037 S107D; 2037-B10_VH-S107D) VH: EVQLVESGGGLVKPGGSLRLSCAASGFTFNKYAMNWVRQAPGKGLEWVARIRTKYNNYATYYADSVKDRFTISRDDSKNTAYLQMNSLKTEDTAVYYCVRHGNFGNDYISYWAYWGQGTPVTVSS VL: QTVVTQEPSLTVSPGGTVTLTCGSSTGAVTSGYYPNWLQQKPGQAPRGLIGGTKFLAPGTPARFSGSLLGGKAALTLSGVQPEDEAEYYCALWYSNRWVFGGGTQLTVTG | 1
SRP 2037-B10 S107D/R97D (antibody, human IgG1, lambda, V domains shown, human IgG1, lambda) VH: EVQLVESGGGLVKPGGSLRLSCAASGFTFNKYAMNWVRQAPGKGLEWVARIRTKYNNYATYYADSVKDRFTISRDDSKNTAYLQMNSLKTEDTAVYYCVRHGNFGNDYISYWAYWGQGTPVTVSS VL: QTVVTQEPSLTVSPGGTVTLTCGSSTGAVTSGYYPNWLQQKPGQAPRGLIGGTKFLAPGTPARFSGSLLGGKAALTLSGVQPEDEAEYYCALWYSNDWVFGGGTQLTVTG | 0

In: # bool: kon of SRP 2037-B10 F104D/R97D (antibody, human IgG1, lambda, V domains shown, human IgG1, lambda) VH: EVQLVESGGGLVKPGGSLRLSCAASGFTFNKYAMNWVRQAPGKGLEWVARIRTKYNNYATYYADSVKDRFTISRDDSKNTAYLQMNSLKTEDTAVYYCVRHGNDGNSYISYWAYWGQGTPVTVSS VL: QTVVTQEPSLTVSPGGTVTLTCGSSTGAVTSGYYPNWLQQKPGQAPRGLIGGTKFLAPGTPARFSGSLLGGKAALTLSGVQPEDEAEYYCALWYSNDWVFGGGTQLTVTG >= 50000 M⁻¹ s⁻¹
Out: 0

In: # bool: kon of 2037-B10_Hc-F104D (antibody, human IgG1, lambda, V domains shown, human IgG1, lambda; also called SRP 2037 F104D; 2037-B10_VH-F104D) VH: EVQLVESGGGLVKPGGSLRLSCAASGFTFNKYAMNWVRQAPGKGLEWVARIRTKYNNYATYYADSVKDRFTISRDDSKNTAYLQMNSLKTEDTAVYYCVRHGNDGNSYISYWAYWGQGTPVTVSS VL: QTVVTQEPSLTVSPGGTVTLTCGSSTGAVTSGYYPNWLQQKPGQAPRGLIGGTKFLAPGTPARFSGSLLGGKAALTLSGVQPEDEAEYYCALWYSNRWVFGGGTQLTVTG >= 50000 M⁻¹ s⁻¹
Out: 1

In: # bool: kon of 2037-B10_Hc-Y61D (antibody, human IgG1, lambda, V domains shown, human IgG1, lambda; also called SRP 2037 Y61D; 2037-B10_VH-Y61D) VH: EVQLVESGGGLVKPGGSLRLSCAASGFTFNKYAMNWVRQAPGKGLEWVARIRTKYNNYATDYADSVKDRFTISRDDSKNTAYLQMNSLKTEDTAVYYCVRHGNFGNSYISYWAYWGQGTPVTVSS VL: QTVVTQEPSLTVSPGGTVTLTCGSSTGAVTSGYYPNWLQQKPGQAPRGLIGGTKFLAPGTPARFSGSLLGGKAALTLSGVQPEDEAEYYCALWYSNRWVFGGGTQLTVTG >= 50000 M⁻¹ s⁻¹
Out: 1

In: # bool: kon of SRP 2037-B10 Y61D/LC6 (antibody, human IgG1, kappa, V domains shown, human IgG1, kappa) VH: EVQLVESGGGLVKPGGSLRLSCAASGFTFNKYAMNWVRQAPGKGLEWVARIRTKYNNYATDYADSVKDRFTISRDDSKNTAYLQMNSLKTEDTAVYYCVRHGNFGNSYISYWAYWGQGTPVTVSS VL: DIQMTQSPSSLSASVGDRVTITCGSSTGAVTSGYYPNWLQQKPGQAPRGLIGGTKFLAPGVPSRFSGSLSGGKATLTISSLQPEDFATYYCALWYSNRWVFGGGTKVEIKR >= 50000 M⁻¹ s⁻¹
Out: 1

In: # bool: kon of 2037-B10_Hc-F29D (antibody, human IgG1, lambda, V domains shown, human IgG1, lambda; also called SRP 2037 F29D; 2037-B10_VH-F29D) VH: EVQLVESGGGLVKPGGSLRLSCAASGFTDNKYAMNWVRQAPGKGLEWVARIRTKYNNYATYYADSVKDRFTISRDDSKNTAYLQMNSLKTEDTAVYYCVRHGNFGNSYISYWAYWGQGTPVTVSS VL: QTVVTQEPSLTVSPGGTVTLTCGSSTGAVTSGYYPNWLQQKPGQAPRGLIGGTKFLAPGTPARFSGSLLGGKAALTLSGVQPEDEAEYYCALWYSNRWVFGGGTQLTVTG >= 50000 M⁻¹ s⁻¹
Out: 0
